- Tested on: M14
- assay-protocol: NCI tumour cell line growth inhibition, 48 h
Activity calls are given as the source filed them. No stated cut-off is given here; in the data, active = GI50 up to about 1.1 µM and inactive = higher.
measure-name: GI50

query: // lookup GI50 | system=M14 | key= O=C(c1ccco1)N(C(=S)OCCOc1ccccc1)c1ccccc1
result: 19.5 µM (inactive)

query: What GI50 appears in the records for this compound with M14? COc1cc(OC)c2c(c1)OC(c1ccccc1)CC2=O (stereo unspecified) [DIMETHYLPINOCEMBRIN]
result: > 10 µM (inactive)

query: Find GI50 (M14) for the entry CC(=O)NC1(C)CCC(C(C)(C)NC(C)=O)CC1 (stereo unspecified)
result: > 100 µM (inactive)

query: What value of GI50 on M14 does O=C(O)CN1C(=O)OC(c2ccccc2)C1=O (stereo unspecified) have?
result: > 100 µM (inactive)

query: For the record COC(=O)[C@]1(c2cc3ccccc3n2S(=O)(=O)c2ccccc2)CC2CCC1NC2 (stereo partly specified) , what value of GI50 is listed for M14?
result: 14.2 µM (inactive)

query: Provide value of GI50 for this record tested with M14: CC(C(=O)COCc1ccccc1)P1(=O)OC(C)(C)CN1C(C)(C)C (stereo unspecified)
result: > 100 µM (inactive)
